experimental.details: melting temperature; fluorescence melt of hairpins on a sequencing array, two-state fit, raised by 9.35 °C to match UV melts
condition.label: sodium 0.088 M
Below is a list of entries, each paired with its recorded Tm value.
measured.parameter: Tm (°C)

[[record]]
sequence_content = "GGGAACGAAAGTTAGCCC ((((((....)))..)))"
reported = 33.1

[[record]]
sequence_content = "GATCCAGCACTGGATC ((((((....))))))"
reported = 56

[[record]]
sequence_content = "GTCTCTGCGAAAGCAGAC (((..(((....))))))"
reported = 34.3

[[record]]
sequence_content = "GATCTTAAATAAGATC ((((((....))))))"
reported = 38.5

[[record]]
sequence_content = "GTCAGCGAAAGCTCAGAC ((((((....)))..)))"
reported = 34.5


###

experimental.details: melting temperature; fluorescence melt of hairpins on a sequencing array, two-state fit, raised by 9.35 °C to match UV melts
condition.label: sodium 0.088 M
# key: entry, value: Tm
measured.parameter: Tm (°C)

[[record]]
sequence_content = "CTCCTGAAAAGGAG (((((....)))))"
measured_parameter = "Tm"
reported = 51.2

[[record]]
sequence_content = "GCGATTGGAAACAATTGC ((.((((....)))).))"
measured_parameter = "Tm"
reported = 49.7

[[record]]
sequence_content = "GCGTTAATACGC ((((....))))"
measured_parameter = "Tm"
reported = 51.1

[[record]]
sequence_content = "GACCTTGGAAACAAGGCC (.(((((....))))).)"
measured_parameter = "Tm"
reported = 45.2

[[record]]
sequence_content = "GCGTAGCGAAAGCTGGGC ((..(((....)))..))"
measured_parameter = "Tm"
reported = 49.3

[[record]]
sequence_content = "GCAAAGCGAAAGCGTCGC ((.(.((....)).).))"
measured_parameter = "Tm"
reported = 60.2

[[record]]
sequence_content = "GGGCAATCGAAAGATCCC (((..(((....))))))"
measured_parameter = "Tm"
reported = 34

[[record]]
sequence_content = "GGTTGCGAAAGCAGAACC ((((((....)))..)))"
measured_parameter = "Tm"
reported = 47.5

[[record]]
sequence_content = "GTGGAGGCGAAAGCCCAC (((..(((....))))))"
measured_parameter = "Tm"
reported = 52.9

[[record]]
sequence_content = "GATCTCTGATGAGATC ((((((....))))))"
measured_parameter = "Tm"
reported = 51.3

[[record]]
sequence_content = "GTCAGTGCGAAAGCAGAC (((..(((....))))))"
measured_parameter = "Tm"
reported = 39.6

[[record]]
sequence_content = "GCCTAGCGAAAGCGATGC ((.(.((....)).).))"
measured_parameter = "Tm"
reported = 44.1

[[record]]
sequence_content = "GCTAACGAAAGTTATAGC ((((((....)))..)))"
measured_parameter = "Tm"
reported = 36

[[record]]
sequence_content = "GTCTGGTCGAAAGACGAC (((..(((....))))))"
measured_parameter = "Tm"
reported = 41.5

[[record]]
sequence_content = "GGTGGGCGAAAGCCACC (((.(((....))))))"
measured_parameter = "Tm"
reported = 66.1

[[record]]
sequence_content = "GCACAGGGAAACTTGTGC (((((.(....).)))))"
measured_parameter = "Tm"
reported = 52.1

[[record]]
sequence_content = "GAGCACGAAAGTGACCTC ((((((....)))..)))"
measured_parameter = "Tm"
reported = 39.6

[[record]]
sequence_content = "GCCGGGCGAAAGCTGGGC (((..((....))..)))"
measured_parameter = "Tm"
reported = 61.2

[[record]]
sequence_content = "GTCTGAGGAAACCCAGAC (((((.(....).)))))"
measured_parameter = "Tm"
reported = 45.9

[[record]]
sequence_content = "GACCAGGGAAACCTGATC ((.((((....)))).))"
measured_parameter = "Tm"
reported = 34.8

[[record]]
sequence_content = "GCCTTCGAAAGAACTGGC ((((((....)))..)))"
measured_parameter = "Tm"
reported = 35.7

[[record]]
sequence_content = "GATCGGCGACCGATC ((((((...))))))"
measured_parameter = "Tm"
reported = 56.4

[[record]]
sequence_content = "GATCTTGGACAAGATC ((((((....))))))"
measured_parameter = "Tm"
reported = 50.8

[[record]]
sequence_content = "GGTCGTCGAAAGACTACC (((.(((....))).)))"
measured_parameter = "Tm"
reported = 48.6

[[record]]
sequence_content = "GAAGAGCGAAAGCTTTC (((.(((....))))))"
measured_parameter = "Tm"
reported = 31.1

[[record]]
sequence_content = "GGGTCAGGAAACTAACCC ((((.((....)).))))"
measured_parameter = "Tm"
reported = 38.2

[[record]]
sequence_content = "GCGAGTATTCGC ((((....))))"
measured_parameter = "Tm"
reported = 57.2

[[record]]
sequence_content = "GCGAGCCGTCGC ((((....))))"
measured_parameter = "Tm"
reported = 52.7

[[record]]
sequence_content = "GAACTGGGAAACTAGTTC (((((.(....).)))))"
measured_parameter = "Tm"
reported = 42.4

[[record]]
sequence_content = "GGCGATGCGAAAGCAGCC (((..(((....))))))"
measured_parameter = "Tm"
reported = 58.5

[[record]]
sequence_content = "GCGATTGGTCGC ((((....))))"
measured_parameter = "Tm"
reported = 52.1

[[record]]
sequence_content = "GAAGTGGGAAACCGCTTC ((((.((....)).))))"
measured_parameter = "Tm"
reported = 51.6

[[record]]
sequence_content = "GGAGAAGAAATTCTCC ((((((....))))))"
measured_parameter = "Tm"
reported = 47.7


###

experimental.details: melting temperature; fluorescence melt of hairpins on a sequencing array, two-state fit, raised by 9.35 °C to match UV melts
condition.label: sodium 0.088 M
measured.parameter: Tm (°C)

[[record]]
sequence_content = "GTCTAGAAATAGAC (((((....)))))"
measured_parameter = "Tm"
unit_label = "°C"
reported = 40.5

[[record]]
sequence_content = "GACTGACGAAAGTCTGTC (((.(((....))).)))"
measured_parameter = "Tm"
unit_label = "°C"
reported = 54.9

[[record]]
sequence_content = "GGGAGGGAAACCTCCC ((((((....))))))"
measured_parameter = "Tm"
unit_label = "°C"
reported = 65.8

[[record]]
sequence_content = "GATCCTGAACAGGATC ((((((....))))))"
measured_parameter = "Tm"
unit_label = "°C"
reported = 59.9

[[record]]
sequence_content = "GACGGTGGAAACACCACC (..((((....))))..)"
measured_parameter = "Tm"
unit_label = "°C"
reported = 35.2

[[record]]
sequence_content = "GCGCTCGAAAGAGCACGC ((((((....)))..)))"
measured_parameter = "Tm"
unit_label = "°C"
reported = 60

[[record]]
sequence_content = "GTCTCAGCGAAAGCTGAC (((..(((....))))))"
measured_parameter = "Tm"
unit_label = "°C"
reported = 36.2


###

experimental.details: folding enthalpy; higher = less favourable; fluorescence melt of hairpins on a sequencing array, two-state fit
condition.label: sodium 0.088 M
Measured folding enthalpy of individual entries
measured.parameter: folding enthalpy (kcal/mol)

[[record]]
sequence_content = "GAAGTCCGAAAGGATTTC (((.(((....))).)))"
measured_parameter = "folding enthalpy"
unit_label = "kcal/mol"
reported = -31.6

[[record]]
sequence_content = "GCCACGCGAAAGCGAAGC ((..(((....)))..))"
measured_parameter = "folding enthalpy"
unit_label = "kcal/mol"
reported = -11.2

[[record]]
sequence_content = "GGTATCGAAAGATAACC ((((((....))).)))"
measured_parameter = "folding enthalpy"
unit_label = "kcal/mol"
reported = -21.5

[[record]]
sequence_content = "TACGAGAAATCGTA (((((....)))))"
measured_parameter = "folding enthalpy"
unit_label = "kcal/mol"
reported = -14.9

[[record]]
sequence_content = "GGTCACCGAAAGGTTACC (((.(((....))).)))"
measured_parameter = "folding enthalpy"
unit_label = "kcal/mol"
reported = -27.2


###

experimental.details: melting temperature; fluorescence melt of hairpins on a sequencing array, two-state fit, raised by 9.35 °C to match UV melts
condition.label: sodium 0.088 M
Reported values of Tm for individual entries
measured.parameter: Tm (°C)

[[record]]
sequence_content = "GATCGTCATTACGATC ((((((....))))))"
reported = 54.8

[[record]]
sequence_content = "GCAGTGCGAAAGCTCGGC ((.(.((....)).).))"
reported = 54.3

[[record]]
sequence_content = "GAGAGCGAAAGCTGCTC ((((((....))).)))"
reported = 47

[[record]]
sequence_content = "GCAGTCGAAAGACCCTGC ((((((....)))..)))"
reported = 33

[[record]]
sequence_content = "GATCGAAGCATCGATC ((((((....))))))"
reported = 51.2

[[record]]
sequence_content = "GTCCGGGCGAAAGCCGAC (((..(((....))))))"
reported = 44.3

[[record]]
sequence_content = "GATCGGTAGACCGATC ((((((....))))))"
reported = 57

[[record]]
sequence_content = "CGCACGGAAACGTCGGCG ((((((....)))..)))"
reported = 46.6

[[record]]
sequence_content = "GGTTCCGAAAGGAGGACC ((((((....)))..)))"
reported = 38.1

[[record]]
sequence_content = "GCGGTCGTCCGC ((((....))))"
reported = 56.9

[[record]]
sequence_content = "GACGATGGAAACATCATC ((.((((....)))).))"
reported = 33.4

[[record]]
sequence_content = "GATCGAGGAATCGATC ((((((....))))))"
reported = 55.9

[[record]]
sequence_content = "GCATTTCGAAAGAATTGC (((.(((....))).)))"
reported = 47.1

[[record]]
sequence_content = "GTACGCGAAAGCGCTTAC ((((((....)))..)))"
reported = 29.4

[[record]]
sequence_content = "GATCGAGACCTCGATC ((((((....))))))"
reported = 56.7

[[record]]
sequence_content = "GATCTTCCGCAAGATC ((((((....))))))"
reported = 42.5

[[record]]
sequence_content = "GGGCCCGGAAACAGGCCC (((((.(....).)))))"
reported = 59.1

[[record]]
sequence_content = "GAAAGGAAACTTTC (((((....)))))"
reported = 30.4

[[record]]
sequence_content = "GCACAGCGAAAGCAATGC (((..((....))..)))"
reported = 37.3

[[record]]
sequence_content = "GATCCGTGTCGGATC ((((((...))))))"
reported = 60.5

[[record]]
sequence_content = "CGTTCGGAAACGAATACG ((((((....)))..)))"
reported = 36.7

[[record]]
sequence_content = "GCTACTCGAAAGAGAGC (((.(((....))))))"
reported = 44.8

[[record]]
sequence_content = "GGATAGGGAAACCTATCC (((((((....)))))))"
reported = 56.8

[[record]]
sequence_content = "GAGTCCGGAAACGGGCTC (((.(((....))).)))"
reported = 63.3

